FYI, the data here is from the OPERA property sets (Mansouri et al. 2018).

resultType: log10 vapour pressure (mmHg)
Numbers only.

For each of the compounds below, state log10 vapour pressure (mmHg).
1. COc1cccc(C(=O)O)c1OC
2. C=CC(=O)OCC(CC)CC
3. CCCCCCCCCc1ccccc1
4. Clc1cc(Cl)c(Cl)c(Cl)c1Cl

Response line:
[-5.73, 0.23, -2.24, -3]

* * *

We use 40 °C as the dividing line for melting point: on or above the line is YES, below is NO.

Reference set (3 entries):
- molecule: "CC(C)(C)C(=O)CCl"
  groupLabel: "NO"
- molecule: "CN(C)c1ccc(N=Nc2ccccc2)cc1"
  groupLabel: "YES"
- molecule: "ClCc1ccc(Cl)c(Cl)c1"
  groupLabel: "NO"

Prompt line: Textbook exercise: given the entry `CCOc1ccc([N+](=O)[O-])cc1N` , state whether its melting point is greater than or equal to 40 °C.
Response line: YES

Prompt line: Check the entry `CC=C(C)Cl` : does melting point equal or exceed 40 °C?
Response line: NO

* * *

resultType: melting point (°C)
One number for each entry, in °C.

// solved cases for melting point follow
- moleculeSmiles: "CC(CC(C)(C)C)CC(C)(C)C"
  melting point [°C]: -67
- moleculeSmiles: "CC(C)(C)c1cc(CO)cc(C(C)(C)C)c1O"
  melting point [°C]: 140
- moleculeSmiles: "C[n+]1cc2c3c(ccc2c2ccc4cc5c(cc4c21)OCO5)OCO3"
  melting point [°C]: 266

Prompt line: Give me measured melting point, please, for this molecule: `O=C1c2ccccc2C(=O)c2ccccc21`
Response line: 286

* * *

Note to self: boiling point under 200 °C means 1, ties and anything higher get 0.

Prompt line: is_below(boiling point, 200 °C) for `CCCCCCCO` ?
Response line: 1

Prompt line: Does the reported boiling point of `Cl[Si](Cl)(c1ccccc1)c1ccccc1` stay below 200 °C?
Response line: 0

* * *

resultType: melting point (°C)
Answers are plain numbers, in °C.

- molecule: "COc1cc(Cc2cnc(N)nc2N)cc(OC)c1OC"
  observed: 201
- molecule: "FC(F)C(F)(F)C(F)Cl (centres undefined)"
  observed: 85
- molecule: "O=C(Cl)c1ccc2ccccc2c1"
  observed: 51

Prompt line: Give melting point for the following molecule: `c1ccc(Cn2ccnc2)cc1`
Response line: 69

* * *

resultType: boiling point (°C)
Give bare numbers, in °C.

Below, 8 compounds whose answers are already recorded.
- compound: "CCC(C)=C(C)C"
  observed: 97.5
- compound: "N#CCCl"
  observed: 126
- compound: "[C-]#[N+]C"
  observed: 59.6
- compound: "CCCCCCCCCCCCCC(=O)OC"
  observed: 295
- compound: "CCC(O)CC"
  observed: 116
- compound: "COC(=O)C1CC1"
  observed: 115
- compound: "CC(C)C(O)C(C)(C)CO (centres undefined)"
  observed: 232
- compound: "CCc1cccc(-c2ccccc2)c1"
  observed: 284

Each of the following entries comes with a recorded value; kindly state boiling point for each.
1. C=C(C)F
2. CCCCCCOCCOCCO
3. CCCSSCCC
4. C1COC1
5. C#CC(C)(C)Cl
6. CCF
7. CCCCCCCCCCCCCCCCCBr

Response line:
[-24, 260, 194, 47.6, 76, -37.6, 349]

* * *

So basically: is log10 vapour pressure (mmHg) under -5? Then yes. Not under? Then no.

- molecule: "CNc1cnn(-c2cccc(C(F)(F)F)c2)c(=O)c1Cl"
  groupLabel: "yes"
- molecule: "CC(=O)OC(C)=O"
  groupLabel: "no"

Prompt line: Regarding CC1(C)C(C=C(Cl)Cl)C1C(=O)OC(C#N)c1ccc(F)c(Oc2ccccc2)c1 (stereo not drawn) , kindly confirm whether its log10 vapour pressure (mmHg) is beneath -5.
Response line: yes

Prompt line: Record `Clc1ccc(Cl)c(Cl)c1` : is its log10 vapour pressure (mmHg) strictly below -5?
Response line: no

Prompt line: Take the molecule `CCCCCCOCCCCCC` and say whether its log10 vapour pressure (mmHg) is less than -5.
Response line: no

Prompt line: Bench note: check whether `CCCCCCCCCCCCCCCC(=O)OCC` shows log10 vapour pressure (mmHg) below -5
Response line: no

Prompt line: Hi there! Is log10 vapour pressure (mmHg) for `CCN(O)CC` below -5, do you know?
Response line: no

* * *

resultType: melting point (°C)
Give bare numbers, in °C.

Examples from the recorded data:
- moleculeSmiles: "Cc1cc[nH]n1"
  melting point [°C]: 36.5
- moleculeSmiles: "Cc1cnc(C)cn1"
  melting point [°C]: 15
- moleculeSmiles: "CCC(C)(C)Cl"
  melting point [°C]: -73.5
- moleculeSmiles: "CC(=O)OC(OC(C)=O)c1cccc([N+](=O)[O-])c1"
  melting point [°C]: 72
- moleculeSmiles: "O=c1c(O)c(O)c(=O)c1=O"
  melting point [°C]: 150
- moleculeSmiles: "O[C@H]1CC[C@H](O)CC1"
  melting point [°C]: 143
- moleculeSmiles: "COc1cc(CCn2cccc2C(=O)O)cc(OC)c1OC"
  melting point [°C]: 132

Now turn to the next compound.
Prompt line: Report melting point, nothing else, for this compound: `BrC(Br)Br`
Response line: 8

* * *

For each of the compounds below, state its melting point.
One number for each entry, in °C.

- compound: "Nc1ncnc(Nc2ccc(Cl)cc2)n1"
  resultType: "melting point"
  unitAbbreviation: "°C"
  observed: 234
- compound: "OCC(F)(F)C(F)(F)C(F)(F)CO"
  resultType: "melting point"
  unitAbbreviation: "°C"
  observed: 79.5
- compound: "CCCl"
  resultType: "melting point"
  unitAbbreviation: "°C"
  observed: -139
- compound: "Cc1[nH]ncc1Br"
  resultType: "melting point"
  unitAbbreviation: "°C"
  observed: 76.5
- compound: "C/C=C\\C"
  resultType: "melting point"
  unitAbbreviation: "°C"
  observed: -122
- compound: "NS(=O)(=O)c1cc2c(cc1Cl)NC(C1CC3C=CC1C3)NS2(=O)=O (stereo not given)"
  resultType: "melting point"
  unitAbbreviation: "°C"
  observed: 234
- compound: "c1ccc2c(c1)-c1cccc3c1c-2cc1ccccc13"
  resultType: "melting point"
  unitAbbreviation: "°C"
  observed: 168
- compound: "Cc1cncc(C)c1"
  resultType: "melting point"
  unitAbbreviation: "°C"
  observed: -6.6
- compound: "CC(C)OC(=O)CCCCC(=O)OC(C)C"
  resultType: "melting point"
  unitAbbreviation: "°C"
  observed: -1.1
- compound: "Clc1ccc(Cc2ccccc2)cc1"
  resultType: "melting point"
  unitAbbreviation: "°C"
  observed: 7.5

For each listed entry, give its melting point.
1. CCC#CCCCC
2. Nc1ccc(C(=O)N[C@@H](CCC(=O)O)C(=O)O)cc1
3. CCCCCCCCCCCCCCCCCl
4. Cc1cc(N)ncn1
5. CCOC(=O)/C=C1/SC(N2CCCCC2)C(=O)N1C (stereo not given)

Response line:
-104
173
17.9
197
140

* * *

Kindly state boiling point for each of the entries shown.
Give bare numbers, in °C.

- compound: "CC1=CCCCCC1"
  resultType: "boiling point"
  unitAbbreviation: "°C"
  observed: 136
- compound: "C=C(C)CC(C)(C)C"
  resultType: "boiling point"
  unitAbbreviation: "°C"
  observed: 101
- compound: "Pc1ccccc1"
  resultType: "boiling point"
  unitAbbreviation: "°C"
  observed: 160
- compound: "CC(C)c1ccc(C=O)cc1"
  resultType: "boiling point"
  unitAbbreviation: "°C"
  observed: 236
- compound: "C#CC(=C)C"
  resultType: "boiling point"
  unitAbbreviation: "°C"
  observed: 32
- compound: "FC(F)(F)C(F)(I)C(F)(F)F"
  resultType: "boiling point"
  unitAbbreviation: "°C"
  observed: 40

# per-item lookup of boiling point; items listed below
1. C=CCCCCCCCCCO
2. Cc1cc(O)cc(O)c1
3. C[Si](Cl)(Cl)C(Cl)Cl
4. CCCc1cccc(O)c1
5. FC(F)(F)Oc1ccccc1
6. CCC#CCCCCC

Response line:
1: 250; 2: 290; 3: 149; 4: 228; 5: 102; 6: 157

Provide each entry's boiling point from the list below.
1. CCCCC/C=C\C/C=C\CCCCCCCC(=O)O
2. CBr
3. CCCCCCC=O
4. O=C1CCC(c2ccccc2)O1 (centres undefined)
5. CC=CC#N
6. CCCCCCCCCCO
7. BrC=C(Br)Br
8. CC1(O)CCCCCC1

Response line:
1: 365; 2: 3.5; 3: 153; 4: 306; 5: 120; 6: 231; 7: 164; 8: 184

Kindly give each listed record's boiling point.
1. CC1CO1 (centres undefined)
2. C#CCCCCC#C
3. CCC/C=C/COC(C)=O
4. COCCN
5. CCCC(=O)OC(=O)CCC
6. c1ccc(Nc2ccc3ccccc3c2)cc1

Response line:
35
136
166
95
200
396

Hey, can you go through the list below and give me boiling point for every item?
1. c1cc2c(c3c1CCCC3)CCCC2
2. COCCOC
3. CC(Cl)C(=O)O (centres undefined)

Response line:
[295, 85, 185]

Would you be so kind as to report boiling point for each listed record?
1. CC(C)C1=CC(=O)C(C)CC1 (centres undefined)
2. CC(C)(C)[N+](=O)[O-]
3. CCC(C)(O)C#CC(C)(O)CC (centres undefined)
4. CC(=O)C(C)Cl (centres undefined)
5. C=CC=CC=C
6. C=C(C=O)CC

Response line:
1: 236; 2: 127; 3: 135; 4: 115; 5: 78; 6: 92.5

For each listed entry, give its boiling point.
1. CCCCCCCCCCCCCCCCCCCCCCCCCCCCCCCCCCCCCCCCCCCC
2. CCCC(C)CC (centres undefined)

Response line:
[548, 91]

// for each compound in input: emit boiling point
1. O=C(Cl)c1cccc(Cl)c1
2. CCOC=O

Response line:
[225, 54.4]
